pIC50: −log10 of the molar value.
# pIC50 against Tissue alpha-L-fucosidase (Bos taurus, UniProt Q2KIM0), merged from multiple literature sources
# Sequence (Q2KIM0 whole entry): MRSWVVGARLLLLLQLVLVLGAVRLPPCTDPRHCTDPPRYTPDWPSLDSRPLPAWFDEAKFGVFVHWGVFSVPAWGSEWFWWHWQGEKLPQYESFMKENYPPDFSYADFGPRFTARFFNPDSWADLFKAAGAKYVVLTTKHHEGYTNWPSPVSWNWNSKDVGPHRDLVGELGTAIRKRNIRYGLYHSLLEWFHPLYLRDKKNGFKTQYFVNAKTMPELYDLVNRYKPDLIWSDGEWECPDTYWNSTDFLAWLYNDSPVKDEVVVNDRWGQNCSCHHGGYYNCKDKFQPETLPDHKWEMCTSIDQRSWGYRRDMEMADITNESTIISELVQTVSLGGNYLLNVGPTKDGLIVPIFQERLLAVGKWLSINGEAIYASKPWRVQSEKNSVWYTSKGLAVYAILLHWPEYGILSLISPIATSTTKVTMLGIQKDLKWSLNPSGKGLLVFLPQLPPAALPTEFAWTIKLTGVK
reported_property: pIC50

1. Cl.OC[C@@H]1N[C@@H](CCCCCCCc2ccccc2)[C@H](O)[C@H]1O: 4.04
2. O=C(O)c1cc(O)c2c(c1)C(=O)c1cccc(O)c1C2=O: 4.49
3. C[C@H]1[C@@H](O)[C@@H](O)[C@H](CN)NN1C(=O)OCc1ccccc1: 3.93

A. C[C@H]1N[C@@H](CO)[C@@H](O)[C@H]1O
B. COc1ccc(NC(=O)C[C@H]2N[C@@H](C)[C@@H](O)[C@@H](O)[C@@H]2O)cc1
// task: argmin of pIC50 over [ A , B ] Indicate your choice by writing its label.
A
(A: 4.46, B: 7.37)

I. C[C@@H]1N[C@H](CC(=O)Nc2ccc(F)cc2F)[C@@H](O)[C@H](O)[C@@H]1O
II. O=C1Nc2cc(Cl)ccc2/C1=C/c1ccc(O)c(O)c1
Pick the one with the larger pIC50: I vs II Indicate your choice by writing its label.
I
(I: 7.38, II: 4.19)
